TESTED_TARGET: LdGSK-3 (Leishmania donovani, UniProt A6N857)
Sequence (A6N857 entry or part of it): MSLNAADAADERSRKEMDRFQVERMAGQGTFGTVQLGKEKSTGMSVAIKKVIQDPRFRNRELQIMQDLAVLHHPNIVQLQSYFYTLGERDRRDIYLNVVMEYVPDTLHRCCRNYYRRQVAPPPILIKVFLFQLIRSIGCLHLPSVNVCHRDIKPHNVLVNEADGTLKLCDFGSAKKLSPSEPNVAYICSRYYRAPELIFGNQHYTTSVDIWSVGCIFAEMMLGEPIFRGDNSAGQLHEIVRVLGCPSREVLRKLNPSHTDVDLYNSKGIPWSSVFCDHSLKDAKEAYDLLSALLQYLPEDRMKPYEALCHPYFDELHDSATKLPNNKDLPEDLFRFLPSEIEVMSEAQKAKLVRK
ASSAY_OVERVIEW: Inhibition of LdGSK-3 with Kinase Glo
Type: biochemical
RECORDED_CONDITIONS: Table S2; 10 µM
QUANTITY_KIND: % inhibition @ 10µM (initial screening on LdGSK3) (%)
Answers are plain numbers, in %.

Some compounds with recorded % inhibition @ 10µM (initial screening on LdGSK3):
COMPOUND: COc1ccc(CNc2nsc3ccccc23)cc1OC
OBSERVED: 13.55

COMPOUND: CC1CCCN(S(=O)(=O)c2ccc(C(=O)Nc3nc(-c4ccccn4)cs3)cc2)C1 (stereo not shown)
OBSERVED: 6.50

COMPOUND: COCc1cc(Nc2ccccc2)nc(-c2ccccn2)n1
OBSERVED: 2.90

Would you mind giving % inhibition @ 10µM (initial screening on LdGSK3) for every compound in the list below?
1. Cc1nc2c(-c3nc(-c4ccc(N)cc4)n[nH]3)cccn2c1C
2. COc1ccc(NS(=O)(=O)c2cc(NC(=O)c3ccc([N+](=O)[O-])s3)ccc2OC)cc1
3. Nc1nc(-c2ccccn2)nc(-n2nc(-c3ccccc3)cc2N)n1.O=C(O)C(F)(F)F.O=C(O)C(F)(F)F.O=C(O)C(F)(F)F.O=C(O)C(F)(F)F.O=C(O)C(F)(F)F.O=C(O)C(F)(F)F.O=C(O)C(F)(F)F.O=C(O)C(F)(F)F
4. CNc1nc(C)nc(N2CCc3cc(C(=O)NCc4ccc(-c5nccn5C)cc4Cl)ccc32)n1.O=C(O)C(F)(F)F

result:
[7.35, 19.75, 17.70, -5.05]

---

TESTED_TARGET: LdGSK-3 (Leishmania donovani, UniProt A6N857)
ASSAY_OVERVIEW: Inhibition of LdGSK-3 with Kinase Glo
Type: biochemical
RECORDED_CONDITIONS: Table S2; 10 µM
QUANTITY_KIND: % inhibition @ 10µM (initial screening on LdGSK3) (%)
One number for each entry, in %.

COMPOUND: O=C(Nc1cccc(Cl)c1)Nc1ccc([N+](=O)[O-])cc1Cl
OBSERVED: 4.80

Would you mind giving % inhibition @ 10µM (initial screening on LdGSK3) for every compound in the list below?
1. CC(c1ccccn1)N(C)Cc1nc2ccccc2n1C(C)C (stereo not drawn)
2. Cc1cc(NC(=O)c2ccc([N+](=O)[O-])s2)ccc1Br
3. COCc1cnc2c(c1SCc1c(F)cccc1Cl)c(=O)n(C)c(=O)n2C
4. Cc1nn(-c2nc(N)nc(-c3ccccn3)n2)c(N)c1-c1ccccc1.O=C(O)C(F)(F)F.O=C(O)C(F)(F)F

result:
[3.45, 3.65, 9.60, 3.80]

---

TESTED_TARGET: LdGSK-3 (Leishmania donovani)
ASSAY_OVERVIEW: Inhibition of LdGSK-3 with Kinase Glo
Assay type: biochemical
RECORDED_CONDITIONS: Table S1; read-out: LdGSK-3 IC50
Rule: IC50 below 10 µM gives y. Equal to or above 10 µM gives n.

COMPOUND_SMILES: O=C(CBr)C1=C(c2c[nH]c3ccccc23)C(=O)NC1=O
ASSIGNED_CLASS: n

query: hey, is IC50 for `O=C(CCl)c1ccc(Br)s1` lower than 10 µM or not?
result: n

query: hey, is IC50 for `O=C(CCl)c1ccc(Cl)cc1` lower than 10 µM or not?
result: y

query: hey, is IC50 for `O=C(CCl)c1cc(Cl)sc1Cl` lower than 10 µM or not?
result: n

query: hey, is IC50 for `O=C(CCl)c1cc(Br)c(Br)s1` lower than 10 µM or not?
result: y
